Every entry's value here was drawn from paper PMC12000511.

- TARGET_OR_TEST_SYSTEM: ctRetromer (Thermochaetoides thermophila, UniProt G0RZB5+G0S709)
- Sequence (G0RZB5 entry or part of it): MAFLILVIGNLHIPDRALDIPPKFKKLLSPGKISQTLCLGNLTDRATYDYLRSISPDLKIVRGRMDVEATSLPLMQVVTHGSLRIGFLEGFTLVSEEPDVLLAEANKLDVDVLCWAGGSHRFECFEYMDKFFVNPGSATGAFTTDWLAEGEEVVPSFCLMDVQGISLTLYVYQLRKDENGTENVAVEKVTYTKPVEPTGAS
- Sequence (G0S709 entry or part of it): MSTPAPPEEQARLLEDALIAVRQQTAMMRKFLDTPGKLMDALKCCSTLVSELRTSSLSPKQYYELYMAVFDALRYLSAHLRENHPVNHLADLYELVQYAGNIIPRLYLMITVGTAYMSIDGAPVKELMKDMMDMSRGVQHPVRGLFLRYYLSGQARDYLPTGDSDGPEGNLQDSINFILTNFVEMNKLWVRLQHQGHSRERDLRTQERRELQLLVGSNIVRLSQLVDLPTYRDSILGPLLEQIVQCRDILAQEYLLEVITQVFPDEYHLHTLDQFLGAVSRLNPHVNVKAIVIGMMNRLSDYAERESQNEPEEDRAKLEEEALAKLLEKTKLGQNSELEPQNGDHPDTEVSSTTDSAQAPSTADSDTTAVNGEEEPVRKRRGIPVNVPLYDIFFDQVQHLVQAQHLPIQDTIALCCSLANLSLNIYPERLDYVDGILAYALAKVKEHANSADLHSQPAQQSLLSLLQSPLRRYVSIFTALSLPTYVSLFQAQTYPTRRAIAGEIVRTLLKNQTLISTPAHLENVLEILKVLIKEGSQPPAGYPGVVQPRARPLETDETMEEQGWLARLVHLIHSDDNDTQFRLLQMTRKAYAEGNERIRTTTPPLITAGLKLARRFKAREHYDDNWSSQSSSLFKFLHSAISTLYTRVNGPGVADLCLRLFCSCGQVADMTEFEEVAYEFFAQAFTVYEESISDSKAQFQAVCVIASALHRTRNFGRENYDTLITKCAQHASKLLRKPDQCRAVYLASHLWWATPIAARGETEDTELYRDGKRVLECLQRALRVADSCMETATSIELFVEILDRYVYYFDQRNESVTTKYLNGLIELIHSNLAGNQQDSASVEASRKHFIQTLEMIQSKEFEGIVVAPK
- Sequence (G0S0E6 entry or part of it, further chain): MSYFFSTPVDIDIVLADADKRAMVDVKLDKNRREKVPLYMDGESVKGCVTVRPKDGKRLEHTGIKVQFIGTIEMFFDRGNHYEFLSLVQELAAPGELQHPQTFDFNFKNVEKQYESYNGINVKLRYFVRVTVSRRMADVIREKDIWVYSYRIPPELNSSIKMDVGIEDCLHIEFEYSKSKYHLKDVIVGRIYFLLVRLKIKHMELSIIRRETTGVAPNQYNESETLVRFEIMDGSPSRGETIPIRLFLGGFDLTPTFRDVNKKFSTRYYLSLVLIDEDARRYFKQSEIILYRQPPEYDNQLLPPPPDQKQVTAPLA
- ASSAY_METHOD_TEXT: ITC, binding to ctRetromer
- Set-up: species or system Chaetomium thermophilum
- CONDITIONS: ctRetromer alone; Microcal PEAQ ITC, 25 °C, 50 mM Tris-HCl pH 7.5, 200 mM NaCl, 2 mM β-ME; single-site model; mean of triplicate titrations; read-out: Kd
Where no end group is shown, it is not given here.
PROPERTY: Kd (µM)

- SUBSTANCE: "GST-ctVps5_61–80: GST-tagged ctVps5 residues 61–80 (VAKPKSLEAVEDDPLGPLGA; not fully specified (N-terminus); also: GST fusion, end not given here)"
  TARGET_OR_TEST_SYSTEM: "ctRetromer (Thermochaetoides thermophila, UniProt G0RZB5+G0S709)"
  READING_UNIT: "µM"
  VALUE_OBSERVED: 60.1

* * *

- TARGET_OR_TEST_SYSTEM: ctRetromer (Thermochaetoides thermophila, UniProt G0RZB5+G0S709)
- ASSAY_METHOD_TEXT: ITC, binding to ctRetromer
- Set-up: species or system Chaetomium thermophilum
- CONDITIONS: read-out: Kd
Where no end group is shown, it is not given here.

- POLYMER_SEQUENCE: "SRATPRRIVAKPKSLEAVEDDPLGPLGA [ctVps5_53–80 peptide]"
  Kd: "0.74 µM"
